- System: MS2 coat protein
- Protocol notes: apparent KD of MS2 coat protein; designed switch direction (-1 OFF switch, 1 ON switch): -1; higher = weaker reporter binding
- Test settings: input ligand: FMN 200 uM
Lab note: anything with apparent KD of MS2 coat protein at or over 20 nM counts as 1.0; the rest go in 0.0.

CAGUACUGAGGAUAUACAUGAGGAUCACCCAUGUGUUCCUGCUAGGAAACUAGCAAGGGUAGAAGGCAGUACUG [Salish 065 m4] (Eterna round: R97, puzzle: Exclusion 3): 1.0
GCCGUGUUAGGAUAUCGCUCGACGAAUAGUUGUCGGAGGAACGAGAAGGAACAUGAGGAUCACCCAUGUGUCAC [Eternabot (L1) Solution 33] (Eterna round: R97, puzzle: Exclusion 4): 1.0
GCUCGUGGGCAAGGAUAUCCUACGCUGUUCUGGUUCGUGUCUGUCACAUGAGGAUCACCCAUGUGGGAGAAGGUGCACCAGGGU [Design 51] (Eterna round: R96, puzzle: Exclusion NG 2): 0.0
AAUGGUAAAGUCAGGAUAUACGUAAGUCGUUCUAGGUAGAAGGGACAUGAGGAUCACCCAUGUAUGAUAGUAAA [Ex4 #33] (Eterna round: R97, puzzle: Brourd's mod of Exclusion 4): 1.0
CUCAUGCCUGAGGAUAUGCUGUACAAAAGUACUGCAGAAGGCAGAACAUGAGGAUCACCCAUGUGGCGAAAGCC [Omei Ex G1] (Eterna round: R97, puzzle: Exclusion 6): 1.0
CUUGUUUAUGUAGGAUAUGCCUGGCGUGCCUUUGCAGAAGGACAUGAGGAUCACCCAUGUAACAUGAGGCUUACCCUUGUCGCC [salish99_ExNG1_r04_119] (Eterna round: R96, puzzle: Exclusion NG 1): 1.0
GUAGAGUCAGGAUAUACAAGAUCGAUAGAUCAAAGACCCAUACAUGAGGAUCACCCAUGUAGAAGGGACUCUAC [Mat - Exclusion 2 - Eli Mod - D11] (Eterna round: R97, puzzle: Exclusion 2): 1.0
GACAUGAGGAUCACCCAUGUAAGGGAUGAACUUCUGGGUAGCUAGGAUAUGGCUACAAAUGUGGACCAGAAGGAGCAUACCCUA [Didianveon] (Eterna round: R96, puzzle: Exclusion NG 3): 0.0
UAAUGUAUAUAGGAUAUCUAGCUGGAAACAGCUAGAGAAGGAUGUACAUGAGGAUCACCCAUGUAAAUCAGUGA [Ex6/14-B1] (Eterna round: R97, puzzle: Exclusion 6): 1.0
UCUGGUGCAGGAUAUACAUGAGGAUCACCCAUGUGAUCAGCAGUCCUCGGACUGCAAUGUAGAAGGGCACCAGA [E3/1-D2] (Eterna round: R97, puzzle: Exclusion 3): 1.0
AGUCCUGCGGUGAGGAUAUAUUUGUAGCCAUUCAGGUAGAAGGCACUUGAGGAUCACCCAAGUAAAGAACCAAC [Releat] (Eterna round: R97, puzzle: Brourd's mod of Exclusion 4): 1.0
GUUAAUUGUCACAUGGGUGACAUGAGGAUCACCCAUGUCACAAGCUUUUUGUUCGUCUUAUAAUUAACCCAUGUGAC [Stov1/12-B2] (Eterna round: R97, puzzle: Sensor, turn-off variant 1): 0.0
GUAGAUCGAGUUAGGAUAUGAUUAAAAUCCGGAUAUCAGAAGGAACUUGAGGAUCACCCAAGUAUAGAUGAUUC [JR_BMEx4_Sub056] (Eterna round: R97, puzzle: Brourd's mod of Exclusion 4): 1.0
AAAUGCGAGCGAGGAUAUCAGAAAGGAAGUGUAUGAGAAGGCGCACCGCGGGUAUCCGGACAUGAGGAUCACCCAUGUAGGCUC [PowerStrip EXNG 1.28] (Eterna round: R96, puzzle: Exclusion NG 1): 1.0
GGAUCUACUGAGGAUAUUACAUCACCCGACUGAUAAGAAGGCAGAACAUGAGGAUCACCCAUGUGGGUAGCCAA [Polaris4] (Eterna round: R97, puzzle: Exclusion 6): 1.0
UACACUGCAUGAGGAUCAAACAUGAGGAUCACCCAUGUAUAGCAGGCUUUUUGUACGUCUUAUAAUUAUGUAGUGUA [Electric Eye 16 - Jieux - Sensor, turn-off variant 1] (Eterna round: R97, puzzle: Sensor, turn-off variant 1): 0.0
UGCAGACGAGGAUAUAAACGAUAUAACAUGAGGAUCACCCAUGUACGAUCGAAUGAUCGUUUAGAAGGCGUCUGCA [E5/10-A1] (Eterna round: R97, puzzle: Exclusion 5): 0.0
UCGCUCCGUGUAGGAUAUCGUUGUAUGAUGCGGCGAGAAGGACAUGAGGAUCACCCAUGUAUGUUAUUAUCACGCGUGGCGCAA [Design 65] (Eterna round: R96, puzzle: Exclusion NG 1): 0.0

Where these numbers come from: the supplement of paper PMC9170038
